# assay-method-text: Rat PK study, intravenous administration, plasma
# Type: in vivo
# measurement-parameters: intravenous 1 mg/kg, read-out: Vss_obs
Square brackets hold non-standard residues; d marks the D form. Peptide text beside a SMILES is read from it. Dmt = Cc1cc(O)cc(C)c1C[C@H](N)C(=O)O
assay-metric: Vd (L/kg)
Answers are plain numbers, in L/kg.

compound	recorded-value
[2H]C([2H])(CN)C([2H])([2H])C[C@H](NC(=O)[C@H](Cc1c(C)cc(O)cc1C)NC(=O)[C@H](N)CCCNC(=N)N)C(=O)N[C@@H](Cc1ccccc1)C(N)=O	0.23

Look at each compound and report its Vd.
1. Cc1cc(O)cc(C)c1C[C@H](NC(=O)[C@H](N)CCCNC(=N)N)C(=O)N[C@@H](CCCCN)C(=O)N[C@@H](Cc1ccccc1)C(N)=O [Example 11 non-deuterated] (H-[dR][Dmt]KF-NH2)
2. [2H]C([2H])(N)C([2H])([2H])C([2H])([2H])C([2H])([2H])[C@H](NC(=O)[C@H](Cc1ccccc1)NC(=O)[C@@H](CCCNC(=N)N)NC(=O)[C@@H](N)Cc1ccccc1)C(N)=O
3. N=C(N)NCCC[C@@H](NC(=O)[C@@H](N)Cc1ccccc1)C(=O)N[C@@H](Cc1ccccc1)C(=O)N[C@@H](CCCCN)C(N)=O [Example 1 non-deuterated, Phe-D-Arg-Phe-Lys-NH2, reference compound] (H-F[dR]FK-NH2)

1. 0.29
2. 0.21
3. 0.27

----------
Exercise: for every item that follows, state its recorded half-life.
# assay-method-text: Rat PK study, intravenous administration, plasma
# Format: in vivo
# measurement-parameters: intravenous 1 mg/kg
Square brackets hold non-standard residues; d marks the D form. Peptide text beside a SMILES is read from it. Dmt = Cc1cc(O)cc(C)c1C[C@H](N)C(=O)O
Numbers only, in min.

molecule	half-life / min
[2H]C([2H])(N)C([2H])([2H])C([2H])([2H])C([2H])([2H])[C@H](NC(=O)[C@H](Cc1ccccc1)NC(=O)[C@@H](CCCNC(=N)N)NC(=O)[C@@H](N)Cc1ccccc1)C(N)=O	27

Look at each molecule and report its half-life.
1. Cc1cc(O)cc(C)c1C[C@H](NC(=O)[C@H](N)CCCNC(=N)N)C(=O)N[C@@H](CCCCN)C(=O)N[C@@H](Cc1ccccc1)C(N)=O [Example 11 non-deuterated] (H-[dR][Dmt]KF-NH2)
2. N=C(N)NCCC[C@@H](NC(=O)[C@@H](N)Cc1ccccc1)C(=O)N[C@@H](Cc1ccccc1)C(=O)N[C@@H](CCCCN)C(N)=O [Example 1 non-deuterated, Phe-D-Arg-Phe-Lys-NH2, reference compound] (H-F[dR]FK-NH2)
3. [2H]C([2H])(CN)C([2H])([2H])C[C@H](NC(=O)[C@H](Cc1c(C)cc(O)cc1C)NC(=O)[C@H](N)CCCNC(=N)N)C(=O)N[C@@H](Cc1ccccc1)C(N)=O

[48, 30, 35.3]

----------
# assay-method-text: Rat PK study, intravenous administration, plasma
# Type: in vivo
# measurement-parameters: intravenous 1 mg/kg
Square brackets hold non-standard residues; d marks the D form. Peptide text beside a SMILES is read from it. Dmt = Cc1cc(O)cc(C)c1C[C@H](N)C(=O)O
assay-metric: AUC(0-t) (ng·h/mL)
One number for each entry, in ng·h/mL.

// known answers, use as guide
compound	recorded-value
[2H]C([2H])(CN)C([2H])([2H])C[C@H](NC(=O)[C@H](Cc1c(C)cc(O)cc1C)NC(=O)[C@H](N)CCCNC(=N)N)C(=O)N[C@@H](Cc1ccccc1)C(N)=O [Example 11, D-Arg-DMT-(4,4,5,5-d4)-Lys-Phe-NH2]	2920
N=C(N)NCCC[C@@H](NC(=O)[C@@H](N)Cc1ccccc1)C(=O)N[C@@H](Cc1ccccc1)C(=O)N[C@@H](CCCCN)C(N)=O [Example 1 non-deuterated, Phe-D-Arg-Phe-Lys-NH2, reference compound] (H-F[dR]FK-NH2)	1950
[2H]C([2H])(N)C([2H])([2H])C([2H])([2H])C([2H])([2H])[C@H](NC(=O)[C@H](Cc1ccccc1)NC(=O)[C@@H](CCCNC(=N)N)NC(=O)[C@@H](N)Cc1ccccc1)C(N)=O [Example 1]	2300

# AUC(0-t) lookup, item Cc1cc(O)cc(C)c1C[C@H](NC(=O)[C@H](N)CCCNC(=N)N)C(=O)N[C@@H](CCCCN)C(=O)N[C@@H](Cc1ccccc1)C(N)=O [Example 11 non-deuterated] (H-[dR][Dmt]KF-NH2) 2120
